tested on: RARg:RXRa (NR concentration 270 nM, RXRa partner concentration 90 nM); test: PBM binding z-score (relative to random genomic background probes); higher = stronger binding; sequences stand for … in GC…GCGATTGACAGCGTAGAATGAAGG
Criterion: PBM binding z-score meeting or surpassing 1. Met: Criterion met. Not met: Criterion not met.

TCGAGTAGGTTACCTATGGGGCATTCAGCTTTCT ... Criterion met
ATCTCTAGGTAAATTTCAGTGAAAGATCGATAGA ... Criterion not met

Q. Is PBM binding z-score for CAAACTCGGTCAAAGGTCAAAGTCGAGCCAACCA at or above 1?
A. Criterion met

Q. Is PBM binding z-score for CCTTATGGGTCACTGACAGGTTATAGCATTTGGA at or above 1?
A. Criterion met

Q. Is PBM binding z-score for TGTTGTAGATCAATAGAGGTTAAGAAAGTGCGCT at or above 1?
A. Criterion met

Q. Is PBM binding z-score for ACAGACAGGTGATGAAGGCAACTCAGGCTATCAT at or above 1?
A. Criterion not met

Q. Is PBM binding z-score for ATCTCTAGGTAAAGATCGTTCAGTGAATGCAAAT at or above 1?
A. Criterion not met

Q. Is PBM binding z-score for CAAACTAGGTCAATGGTCAAAGTCGAGCCAACCA at or above 1?
A. Criterion met

---

tested on: RARa:RXR (NR concentration 270 nM, RXRa partner concentration 90 nM); assay: PBM binding z-score (relative to random genomic background probes); higher = stronger binding; sequences stand for … in GC…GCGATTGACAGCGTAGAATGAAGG
Let's look at some sequences and their measured PBM binding z-score.
Would you mind answering with just the numeric figure?

GATACAGGCTCAAGGCCAGAGTACGCGTATTGAT ... -0.806
TTACCAAGGTGAAGGTGGTTGATCCCTCTGTAGA ... 0.45

Now, please, on to the next sequence.
Q. So what's the measured PBM binding z-score for this one? GCGACTGGGGCATGAGCAGGTTACCATAACTTAA
A. 0.416

---

test system: LXRb:RXRa (NR concentration 270 nM, RXRa partner concentration 90 nM); experiment: PBM binding z-score (relative to random genomic background probes); higher = stronger binding; sequences stand for … in GC…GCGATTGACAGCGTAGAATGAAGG
parameter.measured: PBM binding z-score
Would you mind answering with just the numeric figure?

CCTTACGGGTCACTGACGGGTTATAGCATTTGGA ... 3.42

Q. So what's the measured PBM binding z-score for this one? TCTGCTAGTTCAGTTGGTCAGCTAACGAGCTGCC
A. -0.52

Q. So what's the measured PBM binding z-score for this one? AGTCAAAGTTCACTAGGTAACGTAAGATTCAGCT
A. 3.17

---

tested on: THRa:RXRa (NR concentration 90 nM, RXRa partner concentration 90 nM); assay: PBM binding z-score (relative to random genomic background probes); higher = stronger binding; sequences stand for … in GC…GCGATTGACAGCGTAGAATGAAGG
Let's look at some sequences and their measured PBM binding z-score.
Would you mind answering with just the numeric figure?

CCTAGCAGGCCAGGGTCAATCAAGCATTTCGCTT ... 3.05
CCTCCTAGGTCATGGTCAGCTAATCTACAGTATG ... 3.09

Now, please, on to the next sequence.
Q. So what's the measured PBM binding z-score for this one? TAGCCTAGGTCATGCGGGCCAGTATGGTGTCGGC
A. 2.96

---

system: PPARg:RXRa (NR concentration 180 nM, RXRa partner concentration 90 nM); assay: PBM binding z-score (relative to random genomic background probes); higher = stronger binding; sequences stand for … in GC…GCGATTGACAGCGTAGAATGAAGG
Criterion: PBM binding z-score meeting or surpassing 0.6. Met: Fulfilled. Not met: Not fulfilled.

ACTATTAGGTGAGACGAGGGCAACCGATAGGTTG ... Fulfilled

Q. Is PBM binding z-score for GCTTGCAGATCAAGGTTAAGAAAGACTAAGCTAA at or above 0.6?
A. Not fulfilled

Q. Is PBM binding z-score for ATCGAAAGGACGACGAGGTGAGTATACACCGTTT at or above 0.6?
A. Fulfilled

---

system: RXRa DBDmut IVT, anti-RXR (DBD mutation: RXRa K156A/R161A, NR concentration 90 nM); assay: PBM binding z-score (relative to random genomic background probes); higher = stronger binding; sequences stand for … in GC…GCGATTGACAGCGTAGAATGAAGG
parameter.measured: PBM binding z-score
Would you mind answering with just the numeric figure?

Q. So what's the measured PBM binding z-score for this one? CCTTCCGGGTCACTCCAGGTTATAGCATCGGAGT
A. 1.2

Q. So what's the measured PBM binding z-score for this one? TCGAGTAGGTTACCAATGTGGCATTCAGCTTTCT
A. 0.471

Q. So what's the measured PBM binding z-score for this one? GTTAGCAGGCCATTTGGGTCACTCAATGACGGGC
A. 0.133

Q. So what's the measured PBM binding z-score for this one? TCTAGCAGGCCGGAGGGTCACTCAAGAGGTACGG
A. 0.00965

Q. So what's the measured PBM binding z-score for this one? ATCTCTCGGTAAAAGTTCAGTGAATCCCGAGGAT
A. 0.823

---

Let's look at some sequences and their measured PBM binding z-score.
tested on: LXRa:RXRa (NR concentration 270 nM, RXRa partner concentration 90 nM); assay: PBM binding z-score (relative to random genomic background probes); higher = stronger binding; sequences stand for … in GC…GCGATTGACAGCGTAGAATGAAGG
Would you mind answering with just the numeric figure?

Consider the following illustrative entries.
TCTTGTAGATCAATCGAGGTTAAGAAAGTGCGCT ... 3.01
GCTGCTAGGTCAATTGATGGTCAGCTAAAGCTCG ... 2.21

Q. So what's the measured PBM binding z-score for this one? TCATATAGGTAAATAGGTGAAAGTCCGTAAGTTA
A. 1.32

Q. So what's the measured PBM binding z-score for this one? GAATATAGGTAATACAAGGTGAAAGTCCGATTGT
A. 2.61

Q. So what's the measured PBM binding z-score for this one? AGTCAAAGTTCACTAGCTAACGTAAGATTCAGCT
A. 4.82

Q. So what's the measured PBM binding z-score for this one? TCGATTAGGTTAGTCGGGGCATTCAGCCAACATA
A. 0.421

Q. So what's the measured PBM binding z-score for this one? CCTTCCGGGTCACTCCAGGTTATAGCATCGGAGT
A. 7.37

Q. So what's the measured PBM binding z-score for this one? CGAACGAGGGAATGAGTTGATAGCAAATGCCGAT
A. -0.749

Q. So what's the measured PBM binding z-score for this one? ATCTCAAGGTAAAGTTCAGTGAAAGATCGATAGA
A. 2.17

Q. So what's the measured PBM binding z-score for this one? AGAACGAGGGCAATGAGTTGATAGCGCGGGTGGC
A. 0.127

Q. So what's the measured PBM binding z-score for this one? CGAAATAGGTCAAGGACAGTGAATCTCCGCACGC
A. 4.09

Q. So what's the measured PBM binding z-score for this one? ATCTCTCGGTAAGACTCAGTTCAGTGAAGAACGC
A. 0.674

Q. So what's the measured PBM binding z-score for this one? TCTCGGAGGACACGAAGGTCCGAGCTTTCCAGAG
A. -0.29

Q. So what's the measured PBM binding z-score for this one? TATACATGGTCAAAGGCCAGAGTACGAATGTCGA
A. 0.672

Q. So what's the measured PBM binding z-score for this one? CCTATTAGTTGACCATAAGGGCAACCTAAGCTCG
A. 0.43

Q. So what's the measured PBM binding z-score for this one? ATCGCTAGGTAAGACTCAGTTCAGTGAAGAACGC
A. -0.685

---

system: RARb homodimer (NR concentration 270 nM); assay: PBM binding z-score (relative to random genomic background probes); higher = stronger binding; sequences stand for … in GC…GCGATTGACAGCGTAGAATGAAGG
parameter.measured: PBM binding z-score

Consider the following illustrative entries.
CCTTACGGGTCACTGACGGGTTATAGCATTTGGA ... 3.38
CCTTACGGGTCACTCCAGGTTATAACATCGGAGT ... 3
GCATATAGGTCATACAAGGTGAAAGTCCGATTGT ... 3.94
CGTACAGGGTCAGCTAGGCCAGAGTAGGGACGGC ... 3.07
GGAACGAGGGCAAGGTTGATAGCATCTGTCGACG ... 1.67

Q. So what's the measured PBM binding z-score for this one? TCATATAGGTAAATGCTAGGTTAAAGTCCGATCT
A. 0.967

Q. So what's the measured PBM binding z-score for this one? TCGATTAGGTTACCAATGGGGCATTCAGCTTTCT
A. 1.09

Q. So what's the measured PBM binding z-score for this one? ACTCGGAGGACAAAGGTTAGAGCTACGCCAGTGA
A. 1.89

Q. So what's the measured PBM binding z-score for this one? CCTAGCAGGCCAGTCTGGGTCACTCAAGGCTTGA
A. 2.01

Q. So what's the measured PBM binding z-score for this one? CCGACTGGGGCATAAGGTTGCCATAAGCCAGCCC
A. 0.294

Q. So what's the measured PBM binding z-score for this one? ATCTCTAGGTAACCATGTTCAGTGAATGCCGAAC
A. 0.332

Q. So what's the measured PBM binding z-score for this one? CCTACTGGGCCAAACAGGTCATTGATGCCGATAA
A. 2.13

Q. So what's the measured PBM binding z-score for this one? TCTTGTAGATCAATGGTTAAGAAAGCCGAAGCCT
A. -0.529
